test system: A498; assay: Antiproliferative activity against human A498 cells after 48 hrs by sulphorhodamine B assay; assay type: functional, cell-based; details: A498, 48 h
quantity-kind: IC50 (nM)
Dear colleague, please return just the value in nM, with no unit written.

Challenge: State measured IC50 of the molecule "CC(C)[C@@]12C[C@@H](C(=O)OCCO)[C@@](C)(O1)[C@@H]1CC[C@@H](C)[C@H]1[C@@H]2OC(=O)/C=C/c1ccccc1" with A498.
Response given: 48
